Taken from patent US9096560B2.

Tested on: Lolium perenne (LOLPE)
Assay: Example B post-emergence herbicidal test, LOLPE
Assay type: in vivo
Details: Lolium perenne, 312 h, rate 250 g/ha, evaluated after 13 days, scale 0-100, read-out: Post-emergence activity LOLPE (100=total damage to plant; 0=no damage to plant)
Would you please tag the item Yes when its pest or weed control at 250 g/ha is 80% or above, and No when it is below?

Solved entries:
compound="Cc1cc(C)c(C2C(=O)CC(CC3CCN(C(=O)C(C)C)C3)C2=O)c(C)c1 (stereo not shown)" category=No
compound="Cc1cc(C)c(C2C(=O)CC(CC3CCCOC3)C2=O)c(C)c1 (stereo not shown)" category=Yes
compound="Cc1cc(C)c(C2C(=O)CC(CC3CCN(C(=O)/C=C/c4ccccc4)CC3)C2=O)c(C)c1 (stereo not shown)" category=Yes
compound="CC(=O)N1CCCCC1/C=C1\\CC(=O)C(c2c(C)cc(C)cc2C)C1=O (stereo not shown)" category=No
compound="COC1=C(c2c(C)cc(C)cc2C)C(=O)C(CC2CCOCC2)C1 (stereo not shown)" category=No

Is pest or weed control at 250 g/ha for CC(=O)N1CCC(CC2CC(=O)C(c3c(C)cc(C)cc3C)C2=O)C1 (stereo not shown) at or above 80%?
No

Is pest or weed control at 250 g/ha for CCC1CCC(CC2CC(=O)C(c3c(C)cc(C)cc3C)C2=O)O1 (stereo not shown) at or above 80%?
No

Is pest or weed control at 250 g/ha for Cc1cc(C)c(C2C(=O)CC(CC3CCN(C(=O)OCCCl)CC3)C2=O)c(C)c1 (stereo not shown) at or above 80%?
No

* * *

System: Lolium perenne (LOLPE)
Test: Example B post-emergence herbicidal test, LOLPE
Type: in vivo
Conditions: Lolium perenne, 312 h, rate 250 g/ha, evaluated after 13 days, scale 0-100, read-out: Post-emergence activity LOLPE (100=total damage to plant; 0=no damage to plant)
Value Type: pest or weed control at 250 g/ha

Record excerpt, results attached:
compound="Cc1cc(C)c(C2=C(OC(=O)C(C)(C)C)CC(CC3CCN(C(=O)C(C)(C)C)C3)C2=O)c(C)c1 (stereo not shown)" tested_target="Lolium perenne (LOLPE)" value_type="pest or weed control at 250 g/ha" result=80%
compound="Cc1cc(C)c(C2C(=O)CC(CC3CCOC3)C2=O)c(C)c1 (stereo not shown)" tested_target="Lolium perenne (LOLPE)" value_type="pest or weed control at 250 g/ha" result=100%
compound="CCC(=O)N1CCC(CC2CC(=O)C(c3c(C)cc(C)cc3C)C2=O)CC1 (stereo not shown)" tested_target="Lolium perenne (LOLPE)" value_type="pest or weed control at 250 g/ha" result=90%

Find the measured pest or weed control at 250 g/ha of C=CCOC(=O)N1CCC(CC2CC(=O)C(c3c(C)cc(C)cc3C)C2=O)CC1 (stereo not shown) and report it.
40%

Find the measured pest or weed control at 250 g/ha of Cc1cc(C)c(C2=C(OC(=O)c3ccccc3)CC(CC3CCOCC3)C2=O)c(C)c1 (stereo not shown) and report it.
100%

Find the measured pest or weed control at 250 g/ha of Cc1cc(C)c(C2C(=O)CC(CC3CCN(C(=O)c4ccc(Cl)cc4Cl)CC3)C2=O)c(C)c1 (stereo not shown) and report it.
40%

Find the measured pest or weed control at 250 g/ha of Cc1cc(C)c(C2C(=O)CC(CC3CCN(C(=O)c4cc(C)nn4C)CC3)C2=O)c(C)c1 (stereo not shown) and report it.
90%

Find the measured pest or weed control at 250 g/ha of COc1ccc(C(=O)OC2=C(c3c(C)cc(C)cc3C)C(=O)C(CC3CCOC3)C2)cc1 (stereo not shown) and report it.
100%
